- System: MS2 coat protein
- TEST PROTOCOL: apparent KD of MS2 coat protein; higher = weaker reporter binding
- RECORDED CONDITIONS: Eterna round: R107; input ligand: theophylline 2 mM
Threshold rule: apparent KD of MS2 coat protein greater than or equal to 60 nM is class 1; below that, class 0.

Worked cases, answers included:
- RESIDUE CODES: "GUAGCGACGACGGCCGCCACUCACAGGUGAGGGUAGACCAACCUUCACAUGAGGAUCACCCAUGUGAGGACCGGGUUGUCGGUAC [#11 Exclusion Tryptophan B]"
  TARGET UNDER TEST: "MS2 coat protein"
  CLASS: "class 1"
- RESIDUE CODES: "CUGACAGACUCGGCCGCCACUGAUAGUAGGACAUGAGGAUCACCCAUGUAAACAAACCUCAUAGCCAGGACCGGGAGUCACGAAG [Same State Tryptophan B GF 21]"
  TARGET UNDER TEST: "MS2 coat protein"
  CLASS: "class 0"
- RESIDUE CODES: "ACGGAUCGGAAACGAUCCGCGGCUAGGGUGCGAGGACCGGUACGGCCGCCACUCGGGUAACAUGAGGAUCACCCAUGUCCGAUUU [ETA NP+V+V2 #13 Same Structure]"
  TARGET UNDER TEST: "MS2 coat protein"
  CLASS: "class 1"

input: # bool: apparent KD of MS2 coat protein of GGGUAAGAUCCGGAUACCAGCGAACAUGAGGAUCACCCAUGUGACCUAAGAUAGGCUAAACGCCCUUGGCAGCCGAGAUAGCGUU [Same State Theophylline B GF 6] >= 60 nM
output: class 0

input: # bool: apparent KD of MS2 coat protein of UAUAAACAGCCUGGUUACUCGUCGCGCUUGCGAGGACCGGUACGGCCGCCACUCGACCCAUCACAUGAGGAUCACCCAUGUCCCA [theeternabot_exclusion_MS2_Trp_A_25] >= 60 nM
output: class 0

input: # bool: apparent KD of MS2 coat protein of `GGCCGAAACGGCCAAGGUAUCAUGACCGAUACCAGCGAAGAAGAACGCCCUUGGCAGCGGACAUGAGGAUCACCCAUGUAAAGAA` >= 60 nM
output: class 1

input: # bool: apparent KD of MS2 coat protein of UAUCCACAUGAGGAUCACCCAUGUUAGGAAGGAGCGGUGAAUGCACCAGGUAGGUCGCCUAGCUGAGGACUGUCGGUGGAUUCGU [Exclusion - Arginine A (Freestyle 19)] >= 60 nM
output: class 0

* * *

- System: MS2 coat protein
- TEST PROTOCOL: apparent KD of MS2 coat protein; designed switch direction (-1 OFF switch, 1 ON switch): -1; higher = weaker reporter binding
- RECORDED CONDITIONS: Eterna round: R95; input ligand: microRNA oligo, concentration not stated
Quick reference for apparent KD of MS2 coat protein among some sequences
Provide only the numeric value, understood in nM.

The examples below pair each entry with its known result.
- RESIDUE CODES: "AACUCACAUGAGGAUCACCCAUGUGAGGAUAUGAUACUAUGUACUUCGGUACAUAGUAUCAGAAGGCAUGUGGA [Ex1-3: 90] (puzzle: Exclusion 1)"
  TARGET UNDER TEST: "MS2 coat protein"
  apparent KD of MS2 coat protein (nM): 12.9
- RESIDUE CODES: "GUGUACAGAGGAUAUACUUAUGGAGUUACGAAAGUAACUUCACAUGAGGAUCACCCAUGUAGAAGGCUGUACAC [Dot plot directed v10] (puzzle: Exclusion 2)"
  TARGET UNDER TEST: "MS2 coat protein"
  apparent KD of MS2 coat protein (nM): 25.9
- RESIDUE CODES: "GCAGGAUAAGUGAGGAUAUACCUCUGGAUACAGAGGUAGAAGGCACAUGAGGAUCACCCAUGUUACUCACCUGC [Fiskers BMX 4 - 76] (puzzle: Brourd's mod of Exclusion 4)"
  TARGET UNDER TEST: "MS2 coat protein"
  apparent KD of MS2 coat protein (nM): 10.9

input: Enter recorded apparent KD of MS2 coat protein with MS2 coat protein for UGAGGACAUGAGGAUCACCCAUGUAAGGAUAUGCGGAGAGUUUGGAGAGGUUGAGGAGGCAGAAGGUACAGGAU [JR_Exclu1_Sub047] (puzzle: Exclusion 1) here.
output: 49.2

input: Enter recorded apparent KD of MS2 coat protein with MS2 coat protein for AAGAGGUCAGGAUAUACGGGAAGAGAGAGAAGUAGAGGGUAACAUGAGGAUCACCCAUGUAGAAGGGACUAAGA [JR_Exclu2_Sub072] (puzzle: Exclusion 2) here.
output: 29.6

* * *

- System: MS2 coat protein
- TEST PROTOCOL: apparent KD of MS2 coat protein; designed switch direction (-1 OFF switch, 1 ON switch): 1; higher = weaker reporter binding
- RECORDED CONDITIONS: input ligand: none
Threshold rule: apparent KD of MS2 coat protein greater than or equal to 300 nM is met; below that, not met.

Worked cases, answers included:
- RESIDUE CODES: "UGAAUAGUGAUAGGAUAUACAUGAGGAAUCCUCGUAGAAGGAUCACGACAUGAGGAUCACCCAUGUAGCCGUCCGUAGACGGCA [Mat - Same State NG 1 - JL mod - D59] (Eterna round: R96, puzzle: Same State NG 1)"
  CLASS: "not met"
- RESIDUE CODES: "GUACAGAUUAUAGGAUAUCACGUCGAAUAGACGUGAGAAGGAUAAUCCCACAUGAAUAUUAAUACAUGAGGAUCACCCAUGUAC [SSNG1/18-B1] (Eterna round: R96, puzzle: Same State NG 1)"
  CLASS: "not met"
- RESIDUE CODES: "GUAGCAUACCGAGGAUAUUCAUAUUACAUGAGGAUCACCCAUGUGGCCAGCAUUAGCUGGCCUUGGGAGAAGGCGGAAUGCUAC [Xeonanis - 20 Mod49] (Eterna round: R96, puzzle: Same State NG 2)"
  CLASS: "met"
- RESIDUE CODES: "GGUAUCAUCACAGGAUAUGCUAUCCUUUGGGUAGCAGAAGGGUGGAACAUGAGGAUCACCCAUGUGGUGCCAGGGCGUGAGCCC [JL SSNG1 1.89] (Eterna round: R96, puzzle: Same State NG 1)"
  CLASS: "met"
- RESIDUE CODES: "AUAAAACAUGAGGAUCACCCAUGUCAACAAAGUCGAGGAUAUGGGCAAAUAAAAUAAGAACCAGAAGGCGAAUAUU [salish99_ss1_r3_037] (Eterna round: R96, puzzle: Same State 1)"
  CLASS: "not met"

input: # bool: apparent KD of MS2 coat protein of AAUUAAGAUCUAGGAUAUCACGUCGAAUAGACGUGAGAAGGAGAUCAUAACAUGAGGAUCACCCAUGUAUUACAUGAAUUAAUU [SSNG1/6-B1] (Eterna round: R96, puzzle: Same State NG 1) >= 300 nM
output: not met

* * *

- System: MS2 coat protein
- TEST PROTOCOL: apparent KD of MS2 coat protein; higher = weaker reporter binding
- RECORDED CONDITIONS: Eterna round: R107; input ligand: arginine 13.2 mM
Threshold rule: apparent KD of MS2 coat protein greater than or equal to 40 nM is met; below that, not met.

Worked cases, answers included:
- RESIDUE CODES: "GGCUAUACUACGGCCGCCACUGAACAUGAGGAUCACCCAUGUAAUGUUCAGAUUUUUUUUUUUUACAGGACCGGGUAGAAUUGCC [Tryptophan B 3]"
  CLASS: "met"
- RESIDUE CODES: "CAUUAAUUACGAAGGAGCGUCGAAAAUGGGUAAACAUGAGGAUCACCCAUGUAAAGGGAACGACAGGUAGGUCGCGUAAUUAAUG [AstromonsSSArgB#2]"
  CLASS: "met"
- RESIDUE CODES: "AGAGUCUAGUCGGCCGCCACUCAUGUCCAAUGGACAUGAGGAUCACCCAUGUACCAAAGGUACAUGAGGACCGGGACUGGACUCA [Omei Tryp B SS C v4]"
  CLASS: "not met"

Continue with the next sequence.
input: # bool: apparent KD of MS2 coat protein of UAGGACAUGAGGAUCACCCAUGUUGUACGGCGAGGACCGGUACGGCCGCCACUCGAGGCGUAAGUAGUAAAGAAUCUGAUUCAAU [theeternabot_sameState_MS2_Trp_A_4] >= 40 nM
output: not met

* * *

- System: K4 kissing-loop RNA reporter;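 note: bound reporter read as fluorescence of individual clusters on recovered sequencing chips by microscopy, with normalized cluster intensities fitted with a binding model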
- TEST PROTOCOL: apparent KD of K4 kissing-loop reporter; higher = weaker reporter binding
- RECORDED CONDITIONS: Eterna round: R107; input ligand: none
Threshold rule: apparent KD of K4 kissing-loop reporter greater than or equal to 300 nM is true; below that, false.

- RESIDUE CODES: "GGAUAGGAUAGAGGAUAUGGUUUAUGCAGAAAUAACUUAUUGUGUAAAUCCAUAGGGAGUGAUGUUCCAGAAGGCUGUCCUAUCG [MatMod 15 - Jieux - Exclusion - FMN B]"
  CLASS: "false"
- RESIDUE CODES: "GUGGCGACGCAAGGAUAUGGGUGCUAGUGAUGUUAGCCUUUGCUCCAUGUCACGUGGUCUGCACACCCAGAAGGUGCGGGAAGAU [theeternabot_exclusion_KL_FMN_B_9]"
  CLASS: "true"
- RESIDUE CODES: "AGAGUUAUGCGAGGAUAUGCAGUUAGUACUCAAAGAGUACUAACGCAGAGUGAUGUUCUGUGAAAAGCAGAAGGUGCAUAACUCA [Omei KL FMN B SS B v6]"
  CLASS: "true"
- RESIDUE CODES: "UGGGUGUAGUGAUGUUAUAUAGAGAAUGAUACCAGCUUAGAGAGGAGCCCUUGGCAGCGUAGACGAGUAUCAUUGGAGGAGGAGG [#22 K4 Theophylline A Exclusion]"
  CLASS: "true"

input: # bool: apparent KD of K4 kissing-loop reporter of UUAAAAUAUAUAAAUAAUAAGGGAAUUGAUACCAGACAGAAUUCUGUCCCUUGGCAGCAGUGAUGUUGUUGCAAUUUAAAUAAUU [AK1 Exc Theophylline A] >= 300 nM
output: false

input: # bool: apparent KD of K4 kissing-loop reporter of AAGUCAUAGGCAGGAUAUGCUUAGUAAUAAGGCCAUAUAUACGUAUAGAGUGAUGUUUUGUACCAGGCAGAAGGGCUACAUCAGU [FMN B Excl V8 (+2A)] >= 300 nM
output: true

input: # bool: apparent KD of K4 kissing-loop reporter of AAUUUAUUAACUGAUACCAGACUUUAGCGUGUUUAUAAGUCAAGUGAUGUUUGACUAUUAGUCCCUUGGCAGCAGUAUUUAUUAA [JR_SSTheophyB_Sub022] >= 300 nM
output: false
